reported_metric: melting point

Q: Could you tell me which melting point is on file for CC(C)(C)c1cc(NC(=O)Nc2ccc(Oc3ccccc3)cc2)on1 ?
Result: 182 to 184 °C

Q: I am curious: what melting point value has been reported for O=C(Nc1cc(S(=O)(=O)NCCO)sc1Cl)c1cnn2c(C(F)(F)F)cc(-c3ccc(C(F)(F)F)cc3)nc12 ?
Result: 191 °C

Q: Which value of melting point has been reported for COc1cc2ccccc2cc1C(=O)NNC(=O)c1cc2ccccc2cc1OC in the records?
Result: 260 to 263 °C

Q: Data request, read-out melting point, for CCOC(=O)Cc1ccc(NC(=O)C(COc2cccc(Cl)c2)NS(=O)(=O)c2ccc(F)cc2)cc1 (racemic)
Result: 164 to 165 °C

Q: # input compound: CCN1CCN(C(=O)N2CCC(N3N=C(c4ccc(OC)c(OC)c4)[C@H]4CC=CC[C@H]4C3=O)CC2)C(=O)C1=O ; wanted: its melting point
Result: 226 to 228 °C

Q: Fill blank: measured melting point of the compound CC(=O)C1CCC2C3CCC4CC(C(C(=O)O)C(=O)O)CCC4(C)C3CCC12C (centres undefined) is ____.
Result: 214 to 215 °C

Q: What does the data say about its melting point? Entry: COc1ccc(C(NC(=O)CC2CCCC2)C2=CCc3ccccc32)c(C(=O)NS(=O)(=O)c2ccccc2C)c1 (centres undefined)
Result: 227 to 228 °C

Q: Would you kindly share the measured melting point for Cc1ccnc(C(C#N)Sc2nc(N)cc(Cl)n2)c1 (centres undefined) ?
Result: 145 to 146 °C

Q: Requested read-out: melting point. Entry: COC(C)(C)[C@H]1CCCN1NC(=O)Nc1cccc2c1C(=O)c1c-2n[nH]c1-c1ccc(N2CCNCC2)cc1
Result: 218 °C

Q: I would be grateful if you could share the reported melting point for O=C(O)c1cc(S(=O)CC(=O)c2ccccc2)cc(C(F)(F)F)c1 (centres undefined) .
Result: 148 to 151 °C

Q: Give the measured melting point of O=C(NCc1ccccc1)c1ccnc(NC(=O)c2ccccc2)c1 .
Result: 174 to 176 °C

Q: If you can, please state the reported melting point value of O=C(c1ccccc1F)c1cc(Cl)ccc1CCCN1C(=O)c2ccccc2C1=O .
Result: 98 to 99 °C

Q: Given the entry CC(C)(C)OC(=O)NCc1cccc(C#N)n1 , report its measured melting point.
Result: 85.9 to 86.5 °C

Q: What measured melting point goes with N#Cc1cnn2c1NCCC2c1cccc(F)c1 (centres undefined) ?
Result: 146 to 148 °C

Q: Fill blank: measured melting point of the compound CC(C)(C)[Si](C)(C)Oc1ccc([N+](=O)[O-])cc1 is ____.
Result: 36 to 38 °C

Q: Any idea what its melting point is? The compound is CNC(=O)C(C)CCn1c(COc2ccc(Cl)cc2)nc2c(C)cccc21 (centres undefined)
Result: 168 °C

Q: Given the compound Cn1c(C(F)(F)F)cc(C#N)c1-c1ccc(Cl)c(Cl)c1 , what is its reported melting point?
Result: 130 °C

Q: What does the data say about its melting point? Entry: Cc1nn(C)c(OC(=O)C(Cl)=C(Cl)Cl)c1C(=O)c1ccc(Cl)cc1Cl
Result: 141 to 142 °C

Q: Quick check: melting point of Nc1csc2c([N+](=O)[O-])cccc12 ?
Result: 188 to 191 °C
